TEST DETAILS: Partition coefficient in octanol/water
Type: physicochemical
Recorded PC, one value per entry.
ENDPOINT: PC

{"columns": ["COMPOUND", "ENDPOINT", "MEASURED RESULT"],
 "data": [
  ["Cl.O=[N+]([O-])c1nccn1CCCNc1c2c(nc3ccccc13)CCSC2", "PC", 0.4],
  ["Cl.O=[N+]([O-])c1nccn1CCCNc1c2c(nc3ccccc13)CCCC2", "PC", 0.14],
  ["Cl.O=[N+]([O-])c1nccn1CCCNc1c2ccccc2nc2ccccc12", "PC", 0.07],
  ["CN1CCc2nc3ccccc3c(NCCCn3ccnc3[N+](=O)[O-])c2C1.Cl", "PC", 0.41]
]}
